assay_target: T1, human CD70 (human, UniProt P32970 1-193)
T1 construct: also called hu CD70; CD27L
T1 sequence: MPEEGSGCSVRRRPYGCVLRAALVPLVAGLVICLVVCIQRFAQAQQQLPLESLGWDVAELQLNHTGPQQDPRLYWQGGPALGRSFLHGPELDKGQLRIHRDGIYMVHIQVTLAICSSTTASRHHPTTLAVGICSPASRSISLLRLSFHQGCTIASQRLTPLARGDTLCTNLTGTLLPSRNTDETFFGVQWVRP
measurement_notes: FACS on CHO cells, periplasmic scFv
result_type: binding result

CD70-7 (scFv, As m32) scFv: QVHLVQSGAEVKKPGASVRVSCKASGYTFTSYYLHWVRQAPGQCLEWMGIVDPSGGSTSYDQKFQGRFTMTRDTSTSTVYMELSSLRSEDTAVYYCARDYGDYVFDYWGQGTLVTVSSGGGGSGGGGSGGGGSQSVLTQPPSASGTPGQRVTISCSGSSSNIGTNTVNWYQQLPGTAPQLLIYINNQRPSGVPDRFSGSKSGTSASLAISGLQSEDEADYYCATWDDSLNGPVVGCGTKLTVL: binds
CD70-58 (scFv) scFv: QVQLQESGPGLVKPSQTLSLTCTVSGGSISSSSYYWGWIRQPPGKGLEWIGSIYHSGGTYFNPSLKSRVTISVDTSKNQFSLKLSSVTAADTAVYYCARHYEILTGYYPDVFDIWGQGTMVTVSSGGGGSGGGGSGGGGSDIQMTQSPSSLSASVGDRVTITCRASQSISSYLNWYQQKPGKAPKLLIYAASNLQSGVSSRFSGSGSGTDFTLTISSLQPEDFATYYCQQSFSSPRTFGQGTKVEIK: binds
CD70-67 (scFv, As m32) scFv: EVQLLESGGGLVQPGGSLRLSCAASGFTFSSYAMSWVRQAPGKCLEWVSVISDSGGITDFADSVKGRFIISRDNSRNTLYLQMNSLRAEDTAVYFCARHDYSNYFFFDYWGQGTLVTVSSGGGGSGGGGSGGGGSDIQMTQSPSSLSASVGDRVTITCRASQDISNYLNWYQQKSGKAPELLIYAASSLQSGVPSRFSGSGSGTDFTLTISSLQPEDFATYYCQQSYISPPTFGCGTKVEIK: binds
